- MEASURED TARGET: T1, PDZD2_1, O15018
- T1 sequence (O15018 80-192, limits assumed, looked up): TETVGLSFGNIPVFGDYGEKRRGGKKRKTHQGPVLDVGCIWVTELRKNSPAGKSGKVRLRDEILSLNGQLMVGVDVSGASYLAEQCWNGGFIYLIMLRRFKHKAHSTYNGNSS
- PROTOCOL DESCRIPTION: holdup assay
- Design: key: below the threshold = too weak to quantify, mostly under pKd 3.1 to 4
- CONDITION SUMMARY: plain residues with an end cap or a label only (N-terminal biotin on a linker: ttds)

BINDER	pKd
STLTIFETAL [ABCC4, O15439]	4.19
RSLEEEESQL [GRASP, Q7Z6J2]	below the threshold
SVWLRKETRV [CYSLTR2, Q9NS75]	below the threshold
PKTPPTDTSV [KIR3DL3, Q8N743]	4.3
SSRTRRETQL [HPV16-E6, P03126]	below the threshold
SRPQRTQTQV [HPV67-E6, A4U7F2]	below the threshold
QSARYRDTEL [TJP2, Q9UDY2]	below the threshold
